Attribution: ChEMBL document CHEMBL4622938

target: Protein FosB (Homo sapiens, UniProt P53539); assay: Inhibition of recombinant Hi6-tagged deltaFOSB (unknown origin) expressed in insect cells interaction with TAMRA labeled 5'-GTCGGTGACTCAAAACA-3' AP1 oligonucleotide measured after 15 mins by fluorescence polarization assay; settings: read-out: IC50
measured-property: IC50

>  <compound>
COc1cccc2c1NC(CO)C1CC=CC21 (stereo not drawn)

>  <IC50>
> 100 µM

$$$$

The compound listed as COc1cc(OC)c2c(C(=O)O)nc3c(OC)cccc3c2c1 shows IC50 equal to > 100 µM

* * *

Molecular target: Protein fosB/Transcription factor jun-D (Homo sapiens, UniProt P17535+P53539)
Sequence (P53539 whole entry): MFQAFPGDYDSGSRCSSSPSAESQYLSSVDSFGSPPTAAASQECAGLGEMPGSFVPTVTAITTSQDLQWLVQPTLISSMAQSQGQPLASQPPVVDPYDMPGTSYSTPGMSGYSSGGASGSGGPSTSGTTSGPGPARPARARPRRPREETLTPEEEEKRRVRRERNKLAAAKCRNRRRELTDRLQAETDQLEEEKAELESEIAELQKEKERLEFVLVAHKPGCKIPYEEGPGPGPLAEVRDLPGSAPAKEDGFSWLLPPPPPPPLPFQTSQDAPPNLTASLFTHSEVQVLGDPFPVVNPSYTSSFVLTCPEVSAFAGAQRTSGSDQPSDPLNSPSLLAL
Sequence (P17535 whole entry): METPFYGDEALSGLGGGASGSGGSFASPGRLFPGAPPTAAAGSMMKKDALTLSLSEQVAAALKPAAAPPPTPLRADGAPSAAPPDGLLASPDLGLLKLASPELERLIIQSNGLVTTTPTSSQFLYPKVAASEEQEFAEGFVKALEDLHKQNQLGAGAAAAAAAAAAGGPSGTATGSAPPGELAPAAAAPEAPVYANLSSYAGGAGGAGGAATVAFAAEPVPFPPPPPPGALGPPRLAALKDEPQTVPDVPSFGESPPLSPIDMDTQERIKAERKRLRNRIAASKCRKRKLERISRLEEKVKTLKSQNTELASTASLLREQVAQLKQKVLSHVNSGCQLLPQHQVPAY
Experiment: Inhibition of recombinant Hi6-tagged deltaFOSB (unknown origin)/His6-tagged JUND (unknown origin) expressed in insect cells interaction with TAMRA labeled 5'-GTCGGTGACTCAAAACA-3' AP1 oligonucleotide measured after 15 mins by fluorescence polarization assay
measured-property: IC50

For orientation, consider the following solved cases.
>  <molecule>
COc1cc(OC)c2c(C3CCN(C(C)=O)CC3)nc3c(OC)cccc3c2c1

>  <IC50>
> 100 µM

$$$$
>  <molecule>
Cc1cccc2c3c(c(C(=O)O)nc12)CCC3

>  <IC50>
> 100 µM

$$$$
>  <molecule>
COc1cccc2c1NC(C(=O)O)C1CC=CC21 (stereo unspecified)

>  <IC50>
13.1 µM

$$$$
>  <molecule>
COc1cccc2c1N(C(C)=O)C(C(=O)O)C1CC=CC21 (stereo unspecified)

>  <IC50>
> 100 µM

$$$$
>  <molecule>
COc1cccc2c1NC(CO)C1CC=CC21 (stereo unspecified)

>  <IC50>
> 100 µM

$$$$

Now consider the entry below.
The molecule listed as COc1cc(OC)c2c(C(=O)O)nc3c(OC)cccc3c2c1 shows IC50 equal to > 100 µM

* * *

biological target: Protein FosB (Homo sapiens, UniProt P53539); experiment: Inhibition of recombinant Hi6-tagged deltaFOSB (unknown origin) expressed in insect cells interaction with TAMRA labeled 5'-GTCGGTGACTCAAAACA-3' AP1 oligonucleotide measured after 15 mins by fluorescence polarization assay; details: read-out: IC50
measured-property: IC50

For orientation, consider the following solved cases.
>  <compound>
Cc1cccc2c3c(c(C(=O)O)nc12)CCC3

>  <IC50>
> 100 µM

$$$$
>  <compound>
COc1cccc2c1NC(C(=O)O)C1CC=CC21 (stereo unspecified)

>  <IC50>
28.9 µM

$$$$
>  <compound>
CCOC(=O)C1Nc2c(OC)cccc2C2C=CCC12 (stereo unspecified)

>  <IC50>
> 100 µM

$$$$
>  <compound>
COc1cccc2c1N(C(C)=O)C(C(=O)O)C1CC=CC21 (stereo unspecified)

>  <IC50>
> 100 µM

$$$$
>  <compound>
COc1cccc2c1NC(C(=O)O)C1CCCC21 (stereo unspecified)

>  <IC50>
> 100 µM

$$$$

The value of IC50 recorded for COc1cccc2c1NC(C(=O)Nc1ccccc1)C1CC=CC21 (stereo unspecified) when tested on Protein FosB (Homo sapiens, UniProt P53539) reads > 100 µM

The value of IC50 recorded for COc1cc(OC)c2c(C3CCN(C(=O)OC(C)(C)C)CC3)nc3c(OC)cccc3c2c1 when tested on Protein FosB (Homo sapiens, UniProt P53539) reads > 100 µM

The value of IC50 recorded for CCOC(=O)c1nc2c(C)cccc2c2c1CCC2 when tested on Protein FosB (Homo sapiens, UniProt P53539) reads > 100 µM

The value of IC50 recorded for CNC(=O)C1Nc2c(OC)cccc2C2C=CCC12 (stereo unspecified) when tested on Protein FosB (Homo sapiens, UniProt P53539) reads > 100 µM

The value of IC50 recorded for COc1cc(OC)c2c(C3CCNCC3)nc3c(OC)cccc3c2c1 when tested on Protein FosB (Homo sapiens, UniProt P53539) reads 58 µM

The value of IC50 recorded for COc1cc(OC)c2c(C3CCN(C(C)=O)CC3)nc3c(OC)cccc3c2c1 when tested on Protein FosB (Homo sapiens, UniProt P53539) reads > 100 µM
